- assayed_system: IKZF1 (dCK*-IKZF1 fusion in HEK293FT)
- protocol: inhibition of IKZF1 HTRF signal (DMSO = 0%, pomalidomide 10 uM = 100%); higher = lower IKZF1 protein level
- condition_label: compound concentration: 5 uM, overnight (~20 h)
Where a name gives a salt, the structure may show the parent alone.
result_type: inhibition of IKZF1 HTRF signal (%)
# number only, unit % dropped from output

Recorded inhibition of IKZF1 HTRF signal, per entry:
{"compound": "Clc1ccc(C(Cn2ccnc2)OCc2csc3c(Cl)cccc23)c(Cl)c1 (stereo not drawn) [Sertaconazole]", "result": -18.6}
{"compound": "COC(=O)C1=C(C)NC(C)=C([N+](=O)[O-])C1c1ccccc1C(F)(F)F (racemic)", "result": -43.6}
{"compound": "NC(=O)N1c2ccccc2CC(O)c2ccccc21 (stereo not drawn) [licarbazepine]", "result": -28.1}
{"compound": "CC[C@@]1(O)C(=O)OCc2c1cc1n(c2=O)Cc2c-1nc1cc(F)c(C)c3c1c2[C@@H](N)CC3.CS(=O)(=O)O [Exatecan Mesylate]", "result": -4.98}
{"compound": "CC(CCc1ccc(O)cc1)NCCc1ccc(O)c(O)c1 (stereo not drawn) [Dobutamine HCl]", "result": 18.6}
{"compound": "CC(=O)[C@@]1(O)C=C(O[C@H]2C[C@H](N)[C@H](O)[C@H](C)O2)c2c(c(O)c3c(O)c4ccccc4c(O)c3c2O)C1 [Idarubicin HCl]", "result": 87.1}

INPUT: Recorded inhibition of IKZF1 HTRF signal of CSCC1CN(/N=C/c2ccc([N+](=O)[O-])o2)C(=O)O1 (stereo not drawn) , please.
OUTPUT: -39.4

INPUT: Recorded inhibition of IKZF1 HTRF signal of CCOC(=O)c1ccc(N)cc1 , please.
OUTPUT: 16.4

---

Reported relative growth in counter assay values for the following compounds.
- System: HEK293FT dCK*-only
- protocol: relative growth in counter assay (no AraC = 100%, AraC + DMSO = 0%); higher = more growth rescue independent of IKZF1
- condition_label: compound concentration: 5 uM; AraC concentration: 0.3 uM; overnight pretreatment + 4 days AraC
Counter-ions that a name gives are not always drawn.
# number only, unit % dropped from output

Recorded relative growth in counter assay, per entry:
{"compound": "O=C1CC[C@H](N2Cc3cc(N4CCN(CC5CCN(c6ccc([C@@H]7c8ccc(O)cc8CC[C@@H]7c7ccccc7)cc6)CC5)CC4)ccc3C2=O)C(=O)N1", "assayed_system": "HEK293FT dCK*-only", "result_type": "relative growth in counter assay", "result": 2.17}
{"compound": "COC1CCN(c2cccc(-c3cc(NC(C)=O)nc(-n4nc(C)cc4C)n3)n2)CC1", "assayed_system": "HEK293FT dCK*-only", "result_type": "relative growth in counter assay", "result": 7.56}
{"compound": "O=C(O)c1cc(N=Nc2ccc(O)c(C(=O)O)c2)ccc1O", "assayed_system": "HEK293FT dCK*-only", "result_type": "relative growth in counter assay", "result": 1.54}
{"compound": "COc1cccc2c(O)c3c(O)c4c(c(O)c3c(O)c12)=C(O[C@H]1C[C@H](N)[C@H](O)[C@H](C)O1)C[C@](O)(C(C)=O)C=4 [Daunorubicin HCl]", "assayed_system": "HEK293FT dCK*-only", "result_type": "relative growth in counter assay", "result": -34.8}
{"compound": "COC(=O)Nc1nc2ccc(C(=O)c3ccccc3)cc2[nH]1", "assayed_system": "HEK293FT dCK*-only", "result_type": "relative growth in counter assay", "result": -32.6}
{"compound": "CC[C@@]1(O)C(=O)OCc2c1cc1n(c2=O)Cc2cc3cc(O)ccc3nc2-1 [10-Hydroxycamptothecin]", "assayed_system": "HEK293FT dCK*-only", "result_type": "relative growth in counter assay", "result": -34}
{"compound": "OC(c1cc(C(F)(F)F)nc2c(C(F)(F)F)cccc12)C1CCCCN1 (centres undefined)", "assayed_system": "HEK293FT dCK*-only", "result_type": "relative growth in counter assay", "result": -10.6}
{"compound": "CCN(CC)CCCCC(NC(=O)c1ccc([N+](=O)[O-])cc1)c1ccccc1 (centres undefined)", "assayed_system": "HEK293FT dCK*-only", "result_type": "relative growth in counter assay", "result": 11.1}
{"compound": "CN1CCN(CCCN2c3ccccc3Sc3ccc(Cl)cc32)CC1", "assayed_system": "HEK293FT dCK*-only", "result_type": "relative growth in counter assay", "result": 4.19}
{"compound": "CCc1c2c(nc3ccc(O)cc13)-c1cc3c(c(=O)n1C2)COC(=O)[C@]3(O)CC", "assayed_system": "HEK293FT dCK*-only", "result_type": "relative growth in counter assay", "result": -33.9}

INPUT: Recorded relative growth in counter assay of CC[C@]1(O)C[C@@H]2C[N@@](CCc3c([nH]c4ccccc34)[C@@](C(=O)OC)(c3cc4c(cc3OC)N(C)[C@H]3[C@@](O)(C(=O)OC)[C@H](OC(C)=O)[C@]5(CC)C=CCN6CC[C@]43[C@@H]65)C2)C1.O=S(=O)(O)O [Vinblastine (sulfate)] , please.
OUTPUT: -34.3

INPUT: Recorded relative growth in counter assay of COc1cccc2c1C(=O)c1c(O)c3c(c(O)c1C2=O)C[C@@](O)(C(=O)CO)C[C@@H]3O[C@H]1C[C@H](N)[C@H](O[C@@H]2CCCCO2)[C@H](C)O1 , please.
OUTPUT: -33.8

INPUT: Recorded relative growth in counter assay of CC[C@]1(O)C[C@H]2CN(CCc3c([nH]c4ccccc34)[C@@](C(=O)OC)(c3cc4c(cc3OC)N(C)[C@H]3[C@@](O)(C(=O)OC)[C@H](OC(C)=O)[C@]5(CC)C=CCN6CC[C@]43[C@@H]65)C2)C1 [Vinblastine Sulfate] , please.
OUTPUT: -33.4

INPUT: Recorded relative growth in counter assay of COc1ccc2nc3cc(Cl)ccc3c(Nc3cc(CN4CCCC4)c(O)c(CN4CCCC4)c3)c2n1 , please.
OUTPUT: -29.1

---

Reported inhibition of IKZF1 HTRF signal values for the following molecules.
- assayed_system: IKZF1 (dCK*-IKZF1 fusion in HEK293FT)
- protocol: inhibition of IKZF1 HTRF signal (DMSO = 0%, pomalidomide 10 uM = 100%); higher = lower IKZF1 protein level
- condition_label: compound concentration: 5 uM, overnight (~20 h)
# number only, unit % dropped from output

Recorded inhibition of IKZF1 HTRF signal, per entry:
{"molecule": "CC1(C)Oc2ccc(C#N)cc2[C@H](N(Cc2ncc[nH]2)c2ccc(Cl)cc2)[C@H]1O", "inhibition of IKZF1 HTRF signal, %": -30.7}
{"molecule": "O=C(OC)C1=C(C)NC(C)=C(C(OCCCN3CCC(C4=CC=CC=C4)(C5=CC=CC=C5)CC3)=O)[C@@H]1[C@]2=CC=CC([N+]([O-])=O)=C2 [dexniguldipine]", "inhibition of IKZF1 HTRF signal, %": -24.7}
{"molecule": "C[C@@H]1CC(=O)c2c(ccc3c2C(=O)c2cccc(O)c2C3=O)C1 [ochromycinone]", "inhibition of IKZF1 HTRF signal, %": 14.5}
{"molecule": "O=C(/C=C/c1cccnc1)c1ccncc1", "inhibition of IKZF1 HTRF signal, %": -25}
{"molecule": "O=C1c2c(O)ccc(O)c2C(=O)c2c(NCCNCCO)ccc(NCCNCCO)c21", "inhibition of IKZF1 HTRF signal, %": 5.77}

INPUT: Query the reported inhibition of IKZF1 HTRF signal for IKZF1 (dCK*-IKZF1 fusion in HEK293FT); item: Nc1ncc(Cc2ccc(Br)cc2)s1
OUTPUT: -28.6

INPUT: Query the reported inhibition of IKZF1 HTRF signal for IKZF1 (dCK*-IKZF1 fusion in HEK293FT); item: O=[N+]([O-])c1ccc(O)c2ncccc12
OUTPUT: -23.9

INPUT: Query the reported inhibition of IKZF1 HTRF signal for IKZF1 (dCK*-IKZF1 fusion in HEK293FT); item: O=C(Nc1ccc(S(=O)(=O)C(F)(F)F)cc1)C1=CCN(c2ncccc2C(F)(F)F)CC1
OUTPUT: -40.9

INPUT: Query the reported inhibition of IKZF1 HTRF signal for IKZF1 (dCK*-IKZF1 fusion in HEK293FT); item: O=C(O)C(O)Cc1ccc(O)c(O)c1 (stereo not given) [Sodium Danshensu]
OUTPUT: -50.2

INPUT: Query the reported inhibition of IKZF1 HTRF signal for IKZF1 (dCK*-IKZF1 fusion in HEK293FT); item: COc1ccc(CN2C(=O)C(=O)c3cc(OC(F)(F)F)ccc32)cc1
OUTPUT: -14.2

All figures here come from the supplement of paper PMC12340641.
